# pIC50 per record follows
Test system: Kuramochi cells labeled with mApple-H2B
Procedure Summary: IncuCyte Cell Proliferation Assay
Format: cell-based
Conditions: 72 h
Procedure: IncuCyte® assay was used to measure the effect of disclosed compounds on cell proliferation. Fluorescent microscopy images of cells were taken immediately after compound treatment and 72 hours later. Image analysis software was used to obtain cell counts as a function of compound concentration. Kuramochi cells labeled with mApple-H2B were seeded on 384-well assay-ready plates. […] The normalized cell counts were fit with dose response curves and a […] was calculated.
pIC50: −log10 of the molar value.

Here's what some known entries look like.
Compound	pIC50
C[C@@H](OCC1CCCCC1)[C@H](NC(=O)C1CN(C(=O)c2cnn(Cc3ccccc3)c2)CC12CN(C(=O)[C@H]1CC1(C)C)C2)C(=O)N1CC2(CCC2)C1 (stereo partly drawn)	≥ 6.30
CNC(=O)[C@@H](NC(=O)[C@@H]1CN(C(=O)c2cncs2)CC12CN(C(=O)[C@H]1CC1(C)C)C2)[C@@H](C)OC1CCCCC1	4.70 to 5.30

Pending compound:
For `C[C@@H](OCC1CCOCC1)[C@@H](COC1CCC(F)(F)CC1)NC(=O)[C@@H]1CN(C(=O)c2cncs2)CC12CN(C(=O)C(C)(C)C1CC1)C2` , write its pIC50.
4.70 to 5.30

---

Tested on: Kuramochi cells labeled with mApple-H2B
Procedure Summary: IncuCyte Cell Proliferation Assay
Format: cell-based
Conditions: 72 h
Method: IncuCyte® assay was used to measure the effect of disclosed compounds on cell proliferation. Fluorescent microscopy images of cells were taken immediately after compound treatment and 72 hours later. Image analysis software was used to obtain cell counts as a function of compound concentration. Kuramochi cells labeled with mApple-H2B were seeded on 384-well assay-ready plates. […] The normalized cell counts were fit with dose response curves and a […] was calculated.
pIC50: −log10 of the molar value.
In this section we review reported pIC50 values for a set of compounds.

Known results for compounds:
Compound	System	pIC50
C[C@@H](OCC1CCCCC1)[C@H](NC(=O)[C@@H]1CN(C(=O)c2cnn(C(F)(F)F)c2)CC12CN(C(=O)[C@H]1CC1(C)C)C2)C(=O)N1CCCCC1	Kuramochi cells labeled with mApple-H2B	4.70 to 5.30
CC1(C)C[C@@H]1C(=O)N1CC2(CN(C(=O)c3cnn(Cc4ccccc4)c3)C[C@H]2C(=O)NCc2ccc(C3CCCCC3)nn2)C1	Kuramochi cells labeled with mApple-H2B	< 4.70
CNC(=O)C(NC(=O)[C@@H]1CN(C(=O)c2cncs2)CC12CN(C(=O)[C@H]1CC1(C)C)C2)c1cccc(N2CCOCC2)n1 (stereo partly drawn)	Kuramochi cells labeled with mApple-H2B	< 4.70
CNC(=O)[C@@H](NC(=O)[C@@H]1CN(C(=O)Cc2cn[nH]c2)CC12CN(C(=O)[C@H]1CC1(C)C)C2)[C@@H](C)OCc1ccccc1	Kuramochi cells labeled with mApple-H2B	< 4.70
C[C@@H](OCC1CCOCC1)[C@H](NC(=O)[C@@H]1CN(C(=O)c2cncs2)CC12CN(C(=O)[C@H]1CC1(C)C)C2)C(=O)N1CCC(c2ccncc2)CC1	Kuramochi cells labeled with mApple-H2B	4.70 to 5.30

Answer with the recorded pIC50 of `C[C@@H](OCC12CCC(CC1)OC2)[C@H](NC(=O)[C@@H]1CN(C(=O)c2cncs2)CC12CN(C(=O)[C@H]1CC1(C)C)C2)C(=O)N1CCC(C)(C)CC1` only.
≥ 6.30

Supply pIC50 value. Item: CC1(C)C[C@@H]1C(=O)N1CC2(CN(C(=O)c3cncs3)C[C@H]2C(=O)NC(c2cccc(C3CCCCC3)n2)C2CCCO2)C1 (stereo partly drawn)
5.30 to 6.30

---

System: CDK2/Cyclin E1 (Homo sapiens)
Procedure Summary: CDK2/Cyclin E1 Caliper Assay (LabChip EZ Reader mobility shift)
Conditions: read-out: Caliper Assay (CDK2/CCNE1): IC50
pIC50: −log10 of the molar value.
Test Readout: pIC50

Compound	System	pIC50
CNC(=O)[C@@H](NC(=O)[C@@H]1CN(C(=O)c2cnn(Cc3ccccc3)c2)CC12CN(C(=O)C1(C(C)C)CC1)C2)[C@@H](C)OCc1ccccc1 [I-109A]	CDK2/Cyclin E1 (Homo sapiens)	< 5.00
Cc1ccc(CNC(=O)[C@@H]2CN(C(=O)c3cnn(Cc4ccccc4F)c3)CC23CN(C(=O)[C@H]2CC2(C)C)C3)nn1 [I-407]	CDK2/Cyclin E1 (Homo sapiens)	< 5.00
C[C@@H](OCC1CCCCC1)[C@H](NC(=O)[C@@H]1CN(C(=O)c2cnn(Cc3ccccc3)c2)CC12CN(C(=O)[C@H]1CC1(C)C)C2)C(=O)N1CCC[C@H](N)C1 [I-150A]	CDK2/Cyclin E1 (Homo sapiens)	≥ 8.00

Supply recorded pIC50 for CNC(=O)[C@H](COCc1ccccc1)NC(=O)[C@H]1CN(C(=O)c2cnn(Cc3ccccc3)c2)CC12CN(C(=O)C1(C(F)(F)F)CC1)C2 [I-113B] here.
< 5.00

Given CNC(=O)[C@@H](NC(=O)[C@@H]1CN(Cc2cccnc2)CC12CN(C(=O)[C@H]1CC1(C)C)C2)[C@@H](C)OCc1ccccc1 [I-49A] , respond with its pIC50.
< 5.00

Indicate its recorded pIC50; the compound in question is COCC1CCCN(C(=O)[C@@H](NC(=O)[C@H]2CN(C(=O)c3cnn(Cc4ccccc4)c3)CC23CN(C(=O)[C@H]2CC2(C)C)C3)[C@@H](C)OCC2CCCCC2)C1 (stereo partly drawn) [I-111]
7.00 to 8.00

---

Measured pIC50, listed per entry.
Test system: Kuramochi cells labeled with mApple-H2B
Procedure Summary: IncuCyte Cell Proliferation Assay
Type: cell-based
Conditions: 72 h
pIC50: −log10 of the molar value.

Compound	System	pIC50
C[C@@H](OCC1CCOCC1)[C@H](NC(=O)[C@@H]1CN(C(=O)c2cncs2)CC12CN(C(=O)C(C)(C)C1CC1)C2)C(C)(C)O [I-341]	Kuramochi cells labeled with mApple-H2B	< 4.70
CNC(=O)[C@@H](NC(=O)[C@@H]1CN(C(=O)c2scnc2C(C)(C)C)CC12CN(C(=O)[C@H]1CC1(C)C)C2)[C@@H](C)OCC1CCCCC1 [I-231A]	Kuramochi cells labeled with mApple-H2B	< 4.70
CNC(=O)[C@@H](NC(=O)[C@@H]1CN(C(=O)c2cnc(COC(C)(C)C)s2)CC12CN(C(=O)[C@H]1CC1(C)C)C2)[C@@H](C)OCC1CCCCC1 [I-175A]	Kuramochi cells labeled with mApple-H2B	≥ 6.30
C[C@@H](OCC12CCC(CC1)OC2)[C@H](NC(=O)[C@@H]1CN(C(=O)c2cncs2)CC12CN(C(=O)[C@H]1CC1(C)C)C2)C(=O)N1CCC(OC(F)(F)F)CC1 [I-457]	Kuramochi cells labeled with mApple-H2B	5.30 to 6.30

Please report the measured pIC50 for CNC(=O)[C@@H](NC(=O)[C@@H]1CN(C(=O)c2cncs2)CC12CN(C(=O)[C@H]1CC1(C)C)C2)[C@@H](C)OCC1CCCC2(CC2)C1 (stereo partly drawn) [I-370]
≥ 6.30

Return value of pIC50 for input C[C@@H]1C[C@H](C)CN(C(=O)[C@@H](NC(=O)[C@@H]2CN(C(=O)c3cn[nH]c3)CC23CN(C(=O)[C@H]2CC2(C)C)C3)[C@@H](C)OCC2CCCCC2)C1 [I-173A] , no commentary.
5.30 to 6.30

---

Catalogue of pIC50 values
System: Kuramochi cells labeled with mApple-H2B
Procedure Summary: IncuCyte Cell Proliferation Assay
Format: cell-based
Conditions: 72 h
pIC50: −log10 of the molar value.

Here are 2 compounds together with their reported answers.
Compound	pIC50
CC1(C)C[C@@H]1C(=O)N1CC2(CN(C(=O)c3cncs3)C[C@H]2C(=O)NC(c2cccc(C3CCCCC3)n2)P(C)(C)=O)C1 (stereo partly drawn)	< 4.70
CNC(=O)[C@@H](NC(=O)[C@@H]1CN(C(=O)c2cncs2)CC12CN(CC1CCCC1)C2)[C@@H](C)OCC12CCC(CC1)OC2	< 4.70

Now look at this entry.
Using the record for `CNC(=O)[C@@H](NC(=O)[C@@H]1CN(C(=O)c2cnn(Cc3ccccc3)c2)CC12CN(CC(=O)O)C2)[C@@H](C)OCC1CCCCC1` , state its measured pIC50.
< 4.70

---

System: Kuramochi cells labeled with mApple-H2B
Procedure Summary: IncuCyte Cell Proliferation Assay
Type: cell-based
Conditions: 72 h
IC50 listing for selected compounds.

These recorded examples may help you get a feel for the data.
Compound	IC50
C[C@@H](OCC1CCCCC1)[C@H](NC(=O)C1CN(C(=O)c2cnn(Cc3ccccc3)c2)CC12CN(C(=O)[C@H]1CC1(C)C)C2)C(=O)N1CCCCC1 (stereo partly drawn) [I-194 mixture]	≤ 0.5 µM
COC1CCN(C(=O)[C@@H](NC(=O)[C@@H]2CN(C(=O)c3sc(C)nc3C)CC23CN(C(=O)[C@H]2CC2(C)C)C3)[C@@H](C)OCC23CCC(CC2)OC3)CC1 [I-451]	5 to 20 µM
CO[C@H](C)[C@H](NC(=O)[C@@H]1CN(C(=O)c2cnn(Cc3ccccc3)c2)CC12CN(C(=O)[C@H]1CC1(C)C)C2)C(=O)N1CCC(CN)CC1 [I-306]	> 20 µM
CNC(=O)[C@@H](NC(=O)[C@H]1CN(C(=O)c2cnc(Cl)s2)CC12CN(C(=O)[C@H]1CC1(C)C)C2)[C@@H](C)OCC1CCCCC1 [I-189B]	> 20 µM
C[C@@H](OCC1CCCCC1)[C@H](NC(=O)[C@@H]1CN(C(=O)c2cnn(Cc3ccccc3)c2)CC12CN(C(=O)[C@H]1CC1(C)C)C2)C(=O)N1CC[C@H]1CN [I-310]	5 to 20 µM
CNC(=O)[C@@H](NC(=O)[C@@]1(C)CN(C(=O)c2cnn(Cc3ccccc3)c2)CC12CN(C(=O)[C@H]1CC1(C)C)C2)[C@@H](C)OCC1CCCCC1 [I-499B]	> 20 µM
CC1(C)C[C@@H]1C(=O)N1CC2(CN(C(=O)c3cnn(Cc4ccccc4)c3)C[C@H]2C(=O)NC[C@H]2CC[C@H](C)CC2)C1 [I-382]	> 20 µM
CC(O[C@H](C)[C@H](NC(=O)[C@@H]1CN(C(=O)c2cncs2)CC12CN(C(=O)[C@H]1CC1(C)C)C2)C(=O)N1CCCCC1)C1CCCCC1 (stereo partly drawn) [I-284]	0.5 to 5 µM
C[C@@H](OCc1ccccc1)[C@H](NC(=O)[C@@H]1CN(C(=O)c2cncs2)CC12CN(C(=O)[C@H]1CC1(C)C)C2)C(=O)N(C)C [I-416]	5 to 20 µM
CNC(=O)C(NC(=O)[C@@H]1CN(C(=O)c2cnn(Cc3ccccc3)c2)CC12CN(C(=O)[C@H]1CC1(C)C)C2)c1cccc(C2CCCCC2)n1 (stereo partly drawn) [I-391]	0.5 to 5 µM

Respond only with IC50 recorded for CC1(C)C[C@@H]1C(=O)N1CC2(CN(C(=O)c3cnn(Cc4ccccc4)c3)C[C@H]2C(=O)N2CCN(CC3CCCCC3)C(=O)C2)C1 [I-253]
5 to 20 µM

Give the value of IC50 reported for the following: C[C@@H](OCC1CCOCC1)[C@H](NC(=O)[C@@H]1CN(C(=O)c2cncs2)CC12CN(C(=O)[C@H]1CC1(C)C)C2)C(=O)N1CCC(n2ccnc2)CC1 [I-440]
> 20 µM

src = patent US12065445B2
